METHOD_SUMMARY: yeast display, Sf9 membrane polyspecificity reagent, FACS + sequencing; frameworks hold sequencing errors
READOUT_LABEL: polyreactivity (PSR sort gate)

1) QVQLVESGGGLVQAGGSLRLSCADSGSTFWFYTMGWYRQAPGKERELVATITSGGSTNYADSVKGRFTISRDNAKNTVYLQMNSLKPEDTAVYYCAASSVLTNHDYWGQGTQVTVSS; low polyreactivity
2) QVQLVESGGGLVQAGGILRLSCAASGFTFPWYTMGWYRQAPGKERELVAAISKSGGSTYYADSVKGRFTISRDNAKNTVFLQMNSLKPEDTAVYYCAARGNLYVGGDERFWGQGTQVTVSS; high polyreactivity
3) QVQLVESGGGLVQAGGSLRLSCAASGRTFWGYGMGWYRQAPGKERELVATISSGGSTYYADSVKGRFTISRDNAKNTVYLQMNSLKPEDTAVYYCAARPPRTYWRYQSDYWGQGTQLTVSS; high polyreactivity
4) QVQLVESGGGLVQAGGSLRLSCAASGRNFYAYAMGWYRQAPGKERELVAGITYSGSSTYYADSVKGRFTISRDNAKNTVYLQMNSLKPEDTAVYYCAADLTRVLRYNYWGQGTQVTVSS; low polyreactivity
5) QVQLVESGGGLVQAGGSLRLSCAASGNTFVPYAMGWYRQAPGKERELVAAISWRGGSTYYADSVKGRFTISRDNAKNTVYLQMNSLKPEDTAVYYCAARTFYRPGLAGGYWGQGTQVTVSS; high polyreactivity
6) QVQHVESGGGLVQAGGTLRLSCASSGRTLYYYTMGWYRQAPGKESELVAAISKSGGSTYYADSVKGRFTISRDNAKNTVYLQMNSLKPEDTAVFYCAADRSAYSRGYVRYIYWGQGTKVTVSS; high polyreactivity
7) QVQLVESGGGLVQAGGSLRLSCAASGRIFGENALGWYRQAPGKEREFVAVISISDASTYYADSVKGRFTISRDNAKNTVYLQMISLKPEDTAVYYCAAELTDFLYVASDYWGQGTQVTVSS; low polyreactivity
8) QVQIVESGGGLVQAAGSLRLSCPASGRIFSDYAMGWYRQAPGKERELVAVITRGGDNTHYADSVKGRFTISRDNAKNTVYFQMNSLKPEDTAVYYCAAGFVYFRLRRYFWRDYWGQGTQVTVSS; low polyreactivity
9) QVQLVESGGGLVQAGGSLRLSCASSGFIFHHYGMGRSRQAPGKERELVAGDTHYADSVKGRFTISRDNAKNTVYLQMNSLKPEDTAVYYCNAYWKDDFEDGPGRRGMDYWGQGTLVTVSS; low polyreactivity
10) QVQLVESGGGLVQAGGSLRLSCAASGRTFWYSAMGWYRQAPGKEREFVAAISWSGGSTYYADSVKGRFTISRDNAKNTVYLQMNSLKPEDTAVYYCAADRYDSSQFYYWGQGTQVTVSS; low polyreactivity
11) QVQLVESGGALVQAGGSLRLSCAASGRTLGGYAMGWYRQAPGKERELVAAITRRGGTTYYADSVKGRFTISRDNAKNTVYLQMNSLKPEDTAVYYCAKYTVQYAISHYDYWGQGTQVTVSS; high polyreactivity
12) QVQLVESGGGLVQAGGSLRLSCAASGRILHRYVMGWYRQAPGKERELVAAISSGGSTTYADSVKGRFTISRDNAKYTVYLQMNSLKPEDTAVYYCAADARYSRRYYYWGQGTQVTVSS; low polyreactivity
13) QVQLVESGGGLVQAGGSLRLSCAASGRIFPVNAMGRYRQAPGKERELVATISSGDITNYADSVKGRFTISRDNAKNTVYLQMNSLKPEDTAVYYCNADTSYSEWGSWYYEYDYWGQGTQVTVSS; low polyreactivity
14) QVQLVESGGGLVQAGGSLRLSCAASGLIFYQYAMGWYRQAPGKESELVAAISRSGGRTNYADSVKGRFTISRDNAKNTVYLQMNSLKPEDTAVYYCNAVHYFLYGYYSWGQGTQVSVSS; high polyreactivity
15) QVQLVESGGGLVQAGGSLRLSCAAYVFIFYVYAMGWYRQAHGKERELVAAISGGGDSTYYADSVKGRFTISRDNAKNTVYLQMNSLKPEDTAVYYCATRRYPEVVNGEYGYWGQGTQVTVSS; low polyreactivity
16) QVQLVESGGGLVQAGGSLRLSCAASGRIFSGYTMGWYRQAPGKERELVAAIRVGGGRTYYADSVKGRFTISRDNSKNTVYLQMYSLKPEDTAVYYCAKLYIRHGYDYWGQGTQVTVSS; low polyreactivity
17) QVQLVESGGGLVQAGGSLRLSCAASGSTFGYNGMGWYRQAPGKERELVAAISGGARTYADSVKGRFTISRDNAKNTVYLQMNSLKPEDTAVYYCAADSPVSVTADDGYWGQGTEVTVSS; low polyreactivity
18) QVQLVESGGGLVQAGGSLRLSCAASGSTFSGYAMGWYRHAPGKERELVAAISRRGTSTYYADSVKGRFTISRDNAKNTVYLQMNSLKPEDTAVYYCAARPSGYVIGGYGYWGQGTQVTVSS; high polyreactivity
19) QVQLVESGGGLVQAGGSLRLSCAASGTYRLYAMGWYRQAPGKEREFVAAITYGGGGTYYADSVKGRFTISRDNAKNTVYLQMNSLKPEDTAVYYCAADLYLTDTDVEYYYWGQGTKVTVSS; low polyreactivity
20) QVQLVESGGGLVQAGGSLRLSCAASGRIFYTNAMGWYRQAPGKERELVAVISWGGDTTYYADSVKGRFTISRDNAKNTVYLQMNSLKPEDTAVYYCNADWGPTYEIYDSWGQGTQVTVSS; low polyreactivity
21) QVQLVESGGGLVQAGGSLRLSCAASGRTFKGYTMGWYRQAPGKERELVAAITRSGGGTYYADSVKGRFTISRDNAKNTVYLQMNSLKPEDTAVYYCAARRPGYYYPSKFDYWGQGTQVTVSS; high polyreactivity

###

METHOD_SUMMARY: yeast display, Sf9 membrane polyspecificity reagent, FACS + sequencing; frameworks hold sequencing errors
READOUT_LABEL: polyreactivity (PSR sort gate)

1) QVQLEESGGGLVQAGGSLRLSCAASGRNFSVYAMGWYRPAPGKERELVARIRSGGSTYYADSVKGRFTISRDNAKNTVYLQMNSLKPEDTAVYYCAADGFASRWYAYYYWGQGTQVTVSS; high polyreactivity
2) QVQLVESGGGLVQAGGSLSLSCAASGLTFYKNAMGWYRQAPGKERELVAVISSSGGSTYYADSVKGRFTISRDHAKNTVYLQMNSLKPEDTAVYYCARDLYTEYRWGRLTYDYWGQGTQVTVSS; low polyreactivity
3) QVQLVESGGGLVQAGGSLRLSCAASGSIFGRYVMGWYRQAPGKERELVAAINRSGGRTYYADSVKGRFTISRDTAKNTVYLQMNSLKPEDTAVYYCATYTRSSASKEVPYDYWGQGTEVTVSS; high polyreactivity
4) QVQLVESGVGLVQAGGSLRLSCAASGITFREYAMGWYRQAPGKERELVAAIRYSGGSTYYADSVKGRFTISRDNAMNTVYLQMNSLKPEDTAVYYCAADPRRTLSPQLSDYWGLGTQVTVSS; high polyreactivity
5) QVQLEESGGGLVQAGGSLRLSCAASGYILNDYTKGWYRQAPGKERELVAAITSSGDRTYYADSVKGRFTISRDNAKNTVYLQMNSLNPEDTAVYYCAADIYLGDYYYWGLGTQVTVSS; low polyreactivity

###

METHOD_SUMMARY: yeast display, Sf9 membrane polyspecificity reagent, FACS + sequencing; frameworks hold sequencing errors
READOUT_LABEL: polyreactivity (PSR sort gate)

1) QVQLVESGGGLVQAGGSLSLSCAASGSTFGSNAMGWYRQAPAKERELVAAISWSGGRTYYADSVKGRFTISRDNAKNTVYLQMNRLIPEDTAVYYCYARQFRTMGYWGQGTQVNVSS; high polyreactivity
2) QVQLVESGGGLVQAGGSLRLSCAASGRILVWYAMAWYRQAPGKERELVASISSTGGSTYYADSVKGRFTISRDNAKNTVYLQMNSLKPEDTAVYYCAAVIRSQDGRGYDYWGQGTQVTVSS; high polyreactivity
3) QVQLVESGGGLVQAGGSLRLSCDASGRSSVSMLMVWYRQAPGKERELVARITGSGGSTYYADSVKGRFTISRDNAKNTVYLQMNSLKPEDTAVYYCAARYLWRGRYNYWGQGTQVTVSS; high polyreactivity

###

METHOD_SUMMARY: yeast display, Sf9 membrane polyspecificity reagent, FACS + sequencing; frameworks hold sequencing errors
READOUT_LABEL: polyreactivity (PSR sort gate)

1. QVQLVESGGGLVQAGGSLRLSCAASGFIFSNNAMGWYRQAPGKERELVAAITSSGGRTYYADSVKGRFTISRDNAKNTVYLQMNSLKPEDTAVYYCAAVWRTSVWTKYGYWGQGTQVTVSS; high polyreactivity
2. QVQLVESGGGLVQAGGSLRLSCAASGLIFRWYAMGWYRQAPGKERELVAAISRRGGNTYYADSVKGRFTISRDNAKNTVYLQMNSLKPEDTAVYYCAASPIRSQGNDYWGQGTQVNVSS; high polyreactivity
3. QVQLVESGGGLVQAGGSLRLSCAAYGGTFYYYAMGWYRQAPGKEREFVAAITWTGGRTYYADSVKGRFTISRDNAKNTVYLQMNSLKPEDTAVYYCAASDRYGGRDYWGQGTQVTVSS; high polyreactivity
4. QVQLVESGGGLVHAGGSLRLSCAASGSIFPDNTMGWYRQAPGKERELVAAIDGRGGTTYYADSVKGRFTISRDNAKNTVYLQMNSLKPEDTAVYYCARDIGHSARYDYWGQGTQVTVSS; low polyreactivity
5. QVQLVESGGGLVQAGGSLRLSCAATGRTLGGNAMGWYRLAPGKEREFVARISTRGVRTYYAYSVKGRFTISRDNAKNTVDLQLNSLNPEDTAVYYCAKQVSYGHIGSYPDRDSWGQGTQVTVSS; low polyreactivity

Taken from the nanobody polyreactivity screen of Harvey et al. (2022).
